- Test system: Cricetinae
- experiment-notes: Inhibition of CYP26 in hamster liver microsomes assessed as [11,12-[3H]ATRA metabolism at 100 nM treated 3 mins before [11,12,3H]ATRA addition measured after 30 mins by HPLC analysis
- stated-conditions: Microsome
We begin with a simple list: items and their reported inhibition.
Numbers only; they are read as %.

Reference set (6 entries):
CCOc1cc(/C=N/N2CCN(/N=C/c3ccc(O)c(OCC)c3)CC2)ccc1O    34.3
Nc1nc(Cl)cc(NCCCCCCCCNc2cc(Cl)nc(N)n2)n1    18.1
O=C(Nc1ccc(OCCCCCOc2ccccc2)cc1)C(F)(F)F    34.8
Nc1nc(Cl)cc(NCCCCCCCCCCNc2cc(Cl)nc(N)n2)n1    32.7
CCCCCCC(CCCCCCCCCCC(=O)OC(C)(C)C)OC(C)=O (centres undefined)    36.2
COc1cc(/C=N/CCCC/N=C/c2cc(OC)c(OC)c(OC)c2)cc(OC)c1OC    27.3

Memo: `COC(=O)c1cc(OCC#CC#CCOc2ccc(O)c(C(=O)OC)c2)ccc1O` , reported inhibition: 17.9

Memo: `Cc1nc(N)nc(O)c1CCCNc1ccc(CCCCC2(CCl)OCCO2)cc1` , reported inhibition: 29.4

Memo: `COc1ccc(/C(C)=N/OC(=O)c2cc(OC)c(OC)c(OC)c2)cc1CSc1ccccn1` , reported inhibition: 28.5

###

- Tested on: Cricetinae
- experiment-notes: Inhibition of CYP26 in hamster liver microsomes assessed as [11,12-[3H]ATRA metabolism at 100 nM treated 3 mins before [11,12,3H]ATRA addition measured after 30 mins by HPLC analysis
- stated-conditions: Microsome
parameter: inhibition (%)
Numbers only; they are read as %.

Reference set (5 entries):
CNC(=S)N/N=C(\C)CCCCCCCCCCCC/C(C)=N/NC(=S)NC    21.2
CCOC(=O)c1cnn(-c2ccc(Cc3ccc(-n4ncc(C(=O)OCC)c4C)cc3)cc2)c1C    49.8
CCOC(=O)/C=C(\C)NCCSSCCN/C(C)=C/C(=O)OCC    54.7
Cc1nc(N)nc(O)c1CCCNc1ccc(CCCCC(=O)CCl)cc1    42.8
C/C(=N\CCCCCC/N=C(\C)c1cc(O)ccc1O)c1cc(O)ccc1O    22.2

Memo: `CCOC(=O)CCCCCCCCCCCCCCCCC(=O)OCC` , reported inhibition: 29.5

Memo: Cc1cc(CC(C)C2CCC(C)C(c3ccc(O)c(C)c3)C2)ccc1O (stereo unspecified) , reported inhibition: 33.8

Memo: `COC(=O)CCCCCc1ccc(Cc2ccc(CCCCCC(=O)OC)cc2)cc1` , reported inhibition: 31.4

Memo: CC(SCCCCCCCCCCSC(C)C(=O)O)C(=O)O (stereo unspecified) , reported inhibition: 20.5

Memo: `C/C(=N\Cc1cccc(C/N=C(\C)c2ccccc2O)c1)c1ccccc1O` , reported inhibition: 38.6

Memo: `O=C(Oc1ccc(CC/C=C/CCc2ccc(OC(=O)c3ccccc3)cc2)cc1)c1ccccc1` , reported inhibition: 30.4
